- TGT: Adenosine receptor A2a (Homo sapiens)
- Sequence (P29274 whole entry): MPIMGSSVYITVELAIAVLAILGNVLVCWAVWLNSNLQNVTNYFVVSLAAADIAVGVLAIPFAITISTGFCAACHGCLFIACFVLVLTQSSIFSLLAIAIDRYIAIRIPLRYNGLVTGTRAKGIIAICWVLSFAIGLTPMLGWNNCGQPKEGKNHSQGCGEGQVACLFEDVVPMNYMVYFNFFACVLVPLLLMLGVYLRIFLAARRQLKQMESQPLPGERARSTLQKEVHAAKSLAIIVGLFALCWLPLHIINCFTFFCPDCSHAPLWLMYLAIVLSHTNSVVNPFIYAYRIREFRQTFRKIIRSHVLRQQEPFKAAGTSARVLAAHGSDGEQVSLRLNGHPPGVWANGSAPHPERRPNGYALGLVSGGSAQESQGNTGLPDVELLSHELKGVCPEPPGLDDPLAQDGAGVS
- ASSAY INFO: Displacement of [3H]CGS21680 from human recombinant adenosine receptor-2A expressed in HEK293 cell membrane at 10 uM after 60 mins by liquid scintillation counting
- Format: cell membranes
ASSAY ENDPOINT: inhibition (%)
Numbers only, in %.

Worked cases, inhibition given:
stdin: For the compound `O[C@@H]1[C@H](O)[C@@H]2C[C@@H]2[C@H]1n1cnc2c(NCc3ccccc3OCCF)nc(Cl)nc21` , give its measured inhibition value.
stdout: 32

stdin: Check the records and state inhibition for `O[C@@H]1[C@H](O)[C@@H]2C[C@@H]2[C@H]1n1cnc2c(NCCCF)nc(Cl)nc21`
stdout: 29

stdin: Could you please provide reported inhibition for `O[C@@H]1[C@H](O)[C@@H]2C[C@@H]2[C@H]1n1cnc2c(NC3CCCCCCC3)nc(Cl)nc21` ? Thanks!
stdout: 43

stdin: Identify the reported inhibition for the following entry. `O[C@@H]1[C@H](O)[C@@H]2C[C@@H]2[C@H]1n1cnc2c(NCc3cc(F)ccc3F)nc(Cl)nc21`
stdout: 38

Batch: inhibition for all items listed.
1. CCOc1ccccc1CNc1nc(Cl)nc2c1ncn2[C@H]1[C@H](O)[C@H](O)[C@@H]2C[C@@H]21
2. O[C@@H]1[C@H](O)[C@@H]2C[C@@H]2[C@H]1n1cnc2c(NCc3ccccc3F)nc(Cl)nc21
3. CCNc1nc(Cl)nc2c1ncn2[C@H]1[C@H](O)[C@H](O)[C@@H]2C[C@@H]21
4. O[C@@H]1[C@H](O)[C@@H]2C[C@@H]2[C@H]1n1cnc2c(NCc3cccc(OCCF)c3)nc(Cl)nc21
5. CC(Nc1nc(Cl)nc2c1ncn2[C@H]1[C@H](O)[C@H](O)[C@@H]2C[C@@H]21)C1CC1 (mixture of isomers)
6. COc1ccc(F)c(F)c1CNc1nc(Cl)nc2c1ncn2[C@H]1[C@H](O)[C@H](O)[C@@H]2C[C@@H]21

stdout:
[32, 31, 11, 46, 41, 30]

stdin: Return inhibition (reported value) for this compound: `CC(C)Nc1nc(Cl)nc2c1ncn2[C@H]1[C@H](O)[C@H](O)[C@@H]2C[C@@H]21`
stdout: 39

----------
- TGT: UniProtKB P30542
- Sequence (P30542 whole entry): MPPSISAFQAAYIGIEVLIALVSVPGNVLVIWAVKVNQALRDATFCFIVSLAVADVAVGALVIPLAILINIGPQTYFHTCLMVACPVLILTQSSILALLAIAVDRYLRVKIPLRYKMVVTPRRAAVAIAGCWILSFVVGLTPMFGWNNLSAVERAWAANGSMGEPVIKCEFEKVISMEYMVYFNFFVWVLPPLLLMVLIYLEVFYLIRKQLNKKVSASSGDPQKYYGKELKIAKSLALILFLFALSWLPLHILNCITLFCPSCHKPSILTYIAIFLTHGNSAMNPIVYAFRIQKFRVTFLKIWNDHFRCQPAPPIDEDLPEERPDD
- ASSAY INFO: Displacement of [3H]R-PIA from human recombinant adenosine receptor-1 expressed in CHO cell membrane after 60 mins by liquid scintillation counting
Could you please report measured Ki for the items listed next?
Numbers only, in nM.

Worked examples, 4 compounds total:
stdin: Give recorded Ki. `O[C@@H]1[C@H](O)[C@@H]2C[C@@H]2[C@H]1n1cnc2c(N[C@H]3C[C@H]4CC[C@H]3C4)nc(Cl)nc21`
stdout: 82.6

stdin: For the compound `O[C@@H]1[C@H](O)[C@@H]2C[C@@H]2[C@H]1n1cnc2c(NCc3cc(F)ccc3F)nc(Cl)nc21` , give its reported Ki.
stdout: 1260

stdin: Give the measured Ki for `COc1cc(F)c(F)cc1CNc1nc(Cl)nc2c1ncn2[C@H]1[C@H](O)[C@H](O)[C@@H]2C[C@@H]21`
stdout: 1910

stdin: Supply recorded Ki for `O[C@@H]1[C@H](O)[C@@H]2C[C@@H]2[C@H]1n1cnc2c(NCc3cccc(OCCF)c3)nc(Cl)nc21` here.
stdout: 3580

Others:
stdin: Indicate the recorded Ki value for this compound: `O[C@@H]1[C@H](O)[C@@H]2C[C@@H]2[C@H]1n1cnc2c(N[C@@H]3C[C@H]4CC[C@H]3C4)nc(Cl)nc21`
stdout: 200
